# Tested on: LOX IMVI melanoma
# Assay Comment: NCI tumour cell line growth inhibition, 48 h
Listing: TGI of selected molecules

{"Smiles Notation": "CCOC(=O)c1nnsc1NN", "Result": "> 100 µM"}
{"Smiles Notation": "COc1ccc(NC(=S)NC(=O)c2ccc3c(c2)Sc2ccccc2O3)c([N+](=O)[O-])c1", "Result": "> 100 µM"}

Let us examine a further case.
Record lookup: for LOX IMVI melanoma, what TGI belongs to CC(NC(=O)N(C)C)NC(=O)N(C)C ?
> 10 µM

----------
# Tested on: NCI-H23 lung
# Assay Comment: NCI tumour cell line growth inhibition, 48 h
Property Label: GI50

Examples with their reported GI50 follow.
{"Molecule": "CCOC(=O)/C(C#N)=C\\C=C(/Cl)c1ccc(Cl)cc1", "GI50": "12.2 µM"}
{"Molecule": "COc1ccc(OC)c(Cn2cc3c(c2-c2ccccc2)CCc2cnoc2-3)c1", "GI50": "7.99 µM"}
{"Molecule": "C(=N\\Nc1nnn(Cc2ccccc2)n1)/c1ccccc1", "GI50": "6.97 µM"}

Give the measured GI50 of COC(=O)C1(C)Cc2cc(OC(C)=O)c(OC(C)=O)cc2N1 (stereo not given) .
18.2 µM

Give the measured GI50 of COc1cnc2c(c1)C(=O)c1c-2n(CCCN2CCN(C)CC2)c(=O)c2cc([N+](=O)[O-])ccc12 .
0.362 µM
